Test system: M14 melanoma
experimental.protocol: NCI-60 one-dose screen, 48 h (100 = growth as untreated, 0 = no growth, -100 = all killed)
applied.conditions: 10 µM unless noted
About 83,000 compounds went through this panel and 20% of them were active in at least one assay; those are over-represented in the sample as a whole.
List of growth values.
measured.metric: growth (%)

In [3]: df
Out[3]:
                            chemical_string  unit_of_measure  observed
0  COc1cccc(-c2nc3sccn3c2/C=C/C(=O)c2ccc(C(F)(F)F)cc2)c1                %      85.4
1    COc1ccc(OC)c2c1[nH]c(=O)c1c3ncccc3cn21                %      39.7
2      O=S(=O)(O)c1ccc(N/N=C/c2ccccc2Cl)cc1                %      99.9
3  C(=N\Nc1ncc(-c2cc3cc4c(cc3o2)OCO4)s1)/c1ccco1                %      52.5
4         NS(=O)(=O)c1cnccc1Oc1cccc2cccnc12                %      98.8
5  COc1ccc(OC)c(-c2c(C#N)c(-c3ccc(Cl)cc3)nc3c2c(-c2ccccc2)nn3-c2ccccc2)c1                %       101

* * *

Tested on: MALME-3M melanoma
experimental.protocol: NCI-60 one-dose screen, 48 h (100 = growth as untreated, 0 = no growth, -100 = all killed)
applied.conditions: 10 µM unless noted
This is part of a sample that, as a whole, favours compounds with a hit. Of some 83,000 tested, about 20% had one in any assay.
measured.metric: growth (%)

In [3]: df
Out[3]:
                                   molecule  experimental_target  measured_metric  unit_of_measure  observed
0  Clc1ccc(-c2c3ccc(=[N+]4CCCCC4)cc-3oc3cc(N4CCCCC4)ccc23)cc1    MALME-3M melanoma           growth                %     -76.4
1          c1ccc2cc3nc4cc5ccccc5cc4nc3cc2c1    MALME-3M melanoma           growth                %       134
2  O=C(Nc1ccc(Nc2ccncc2)cc1)c1ccc(C(=O)Nc2ccc(Nc3ccncc3)cc2)cc1    MALME-3M melanoma           growth                %      5.82
3  O=C1/C(=C/c2ccccc2)CCc2nc3ccccc3c(/C=C/c3ccc(Cl)cc3)c21    MALME-3M melanoma           growth                %       105
4   CCCCC1CCCCN1C(=O)OCC (stereo not given)    MALME-3M melanoma           growth                %       108

* * *

System: SK-MEL-28 melanoma
experimental.protocol: NCI-60 one-dose screen, 48 h
applied.conditions: 10 µM unless noted
This is part of a sample that, as a whole, favours compounds with a hit. Of some 83,000 tested, about 20% had one in any assay. Active and inactive are the calls of the source. The calls were made as follows: active = growth percent below 10; inactive = the rest.
Labels: true (1) = active, false (0) = inactive

>>> df
                                    compound  discrete_label
 0  N/C(=N\c1nc2ccccc2s1)NC(=O)Nc1cccc(Cl)c1       false (0)
 1  Cc1cc(Cl)ccc1Nc1nc(C(F)(F)F)ccc1C(=O)N/N=C/c1ccc(N(C)C)cc1       false (0)
 2  CN(C)c1ccc(-c2cc(-c3ccc(Nc4nc(Nc5ccc(Cl)cc5)nc(Nc5ccc(Cl)cc5)n4)cc3)no2)cc1       false (0)
 3  N#Cc1c(-c2cccc(Cl)c2)cc(-c2cccc(Cl)c2)[nH]c1=O       false (0)
 4  CC/C=C\C/C=C\C[C@H](O)C/C=C1/C(=O)C=C[C@@H]1C/C=C\CCCC(=O)O       false (0)
 5      COc1ccc2c(c1)[nH]c(=O)c1c3cccnc3cn21       false (0)
 6  COc1cc(C2CC(=O)Nc3c2c(C)nn3-c2nc3ccccc3[nH]2)cc2c1OCC(=O)N2 (centres undefined)       false (0)
 7  CCN(CC)CCN1C(=O)c2c(c(C)c3c(oc4cc(O)ccc43)c2C)C1=O       false (0)
 8  Cn1ccc2c(c1=O)C(=O)c1nccc3c1c-2nc1ccccc13       false (0)
 9  CCOC(=O)/C=C/c1cc2cc(-c3csc4ccccc34)ccc2[nH]1       false (0)
10  Cc1cc(NCc2cc(Nc3ccnc4cc(Cl)ccc34)ccc2F)nc(N2CCSCC2)n1        true (1)
11  CCN(CC)S(=O)(=O)c1cccc(-c2ccc3c(NC(=O)C4CC4)n[nH]c3c2)c1       false (0)
12        Fc1ccc(CNc2c3ccccc3nc3ccccc23)cc1F       false (0)
13  COc1cccc(/C=C/C(=O)c2c(C)nc3ccccc3c2/C=C/c2ccc(C)cc2)c1OC       false (0)
14  COc1ccc(/C=c2\nc3n(-c4ccccc4)c4nc5c6c(sc5c(=N)n4n-3c2=O)CCCC6)cc1       false (0)
15  O=[N+]([O-])c1ccc(N2c3ccncc3Sc3ccncc32)cc1       false (0)
16  CCN1C(=O)N(CC)C2C1NN=c1s/c(=C\c3cccs3)c(=O)n12 (centres undefined)       false (0)
17  Cc1c(Cl)cc(-n2c(=O)c3ccccc3c3ccccc3c2=O)cc1Cl       false (0)
18  C=C(C)[C@@H]1CC[C@]2(C(=O)NC3CCCCC3)CC[C@]3(C)[C@H](CC[C@@H]4[C@@]5(C)CCCNC(C)(C)[C@@H]5CC[C@]43C)[C@@H]12       false (0)
19     Cc1cc(C)c(-c2c(C)cc(C)cc2CBr)c(CBr)c1       false (0)
20  CCN1CCN(c2nc(C)cc(NCc3cc(Nc4ccnc5cc(Cl)ccc45)ccc3F)n2)CC1        true (1)
21  O=[N+]([O-])c1ccc(-c2cc(-c3ccc(Nc4nc(Nc5ccc(Cl)cc5)nc(Nc5ccc(Cl)cc5)n4)cc3)no2)cc1       false (0)
22   Cc1ccc(S(=O)(=O)N/N=C\c2cc(Cl)ccc2O)cc1       false (0)
23  Cc1ccc2[nH]c(=O)c3c(c2c1)OC(N)=C(C#N)C31c2cc(Br)ccc2-c2ccc(Br)cc21       false (0)
24  CS(=O)(=O)c1ccc(Nc2nc(N[C@H]3CCCC[C@H]3N)nc3cc[nH]c(=O)c23)cc1        true (1)
25  CCCCCCCCCOc1c(OC)cc(C2CC(=O)Nc3c2c(C)nn3-c2nc3ccccc3[nH]2)cc1OC (centres undefined)        true (1)
26  N#C/C(=C\c1ccc(-c2ccccc2F)o1)c1nc(-c2ccco2)cs1       false (0)
27  O=C(NC(Cc1nnc2n(Cc3ccccc3)c(=O)c3c4c(sc3n12)CCCC4)c1ccc(Cl)cc1)c1ccccc1 (centres undefined)       false (0)
28  C(=N\Nc1ncc(-c2cc3cc4c(cc3o2)OCO4)s1)/c1ccco1       false (0)

Hey, just so you know, these numbers are from PubChem BioAssay (NCI).
